# SALL4 ZNF1-2 GFP/RFP Relative Abundance values compiled below
Target: SALL4 ZNF1-2 (Homo sapiens, UniProt Q96SW2+Q9UJQ4)
Construct: IKZF1Δ, IKZF2Δ, GSPT1 and SALL4 ZnF1-2 were subcloned; expressed in transfected cells; host or cells: Flp-In 293
Sequence (Q9UJQ4 378-438 limits assumed): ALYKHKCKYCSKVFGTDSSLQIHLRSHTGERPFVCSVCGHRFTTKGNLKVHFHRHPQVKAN
Sequence (Q96SW2 whole entry): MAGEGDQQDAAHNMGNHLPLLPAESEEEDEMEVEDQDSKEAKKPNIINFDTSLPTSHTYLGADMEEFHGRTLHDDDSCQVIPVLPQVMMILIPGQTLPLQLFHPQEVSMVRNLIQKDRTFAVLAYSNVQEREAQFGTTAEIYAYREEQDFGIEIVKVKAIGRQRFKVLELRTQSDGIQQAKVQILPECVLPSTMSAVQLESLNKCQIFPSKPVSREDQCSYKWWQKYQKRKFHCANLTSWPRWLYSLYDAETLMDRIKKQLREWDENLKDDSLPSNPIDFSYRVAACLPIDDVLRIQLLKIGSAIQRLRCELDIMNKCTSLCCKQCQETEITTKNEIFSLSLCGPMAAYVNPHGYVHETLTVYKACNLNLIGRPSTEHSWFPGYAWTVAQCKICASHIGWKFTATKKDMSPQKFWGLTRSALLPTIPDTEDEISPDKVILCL
Sequence (Q16531 whole entry partner): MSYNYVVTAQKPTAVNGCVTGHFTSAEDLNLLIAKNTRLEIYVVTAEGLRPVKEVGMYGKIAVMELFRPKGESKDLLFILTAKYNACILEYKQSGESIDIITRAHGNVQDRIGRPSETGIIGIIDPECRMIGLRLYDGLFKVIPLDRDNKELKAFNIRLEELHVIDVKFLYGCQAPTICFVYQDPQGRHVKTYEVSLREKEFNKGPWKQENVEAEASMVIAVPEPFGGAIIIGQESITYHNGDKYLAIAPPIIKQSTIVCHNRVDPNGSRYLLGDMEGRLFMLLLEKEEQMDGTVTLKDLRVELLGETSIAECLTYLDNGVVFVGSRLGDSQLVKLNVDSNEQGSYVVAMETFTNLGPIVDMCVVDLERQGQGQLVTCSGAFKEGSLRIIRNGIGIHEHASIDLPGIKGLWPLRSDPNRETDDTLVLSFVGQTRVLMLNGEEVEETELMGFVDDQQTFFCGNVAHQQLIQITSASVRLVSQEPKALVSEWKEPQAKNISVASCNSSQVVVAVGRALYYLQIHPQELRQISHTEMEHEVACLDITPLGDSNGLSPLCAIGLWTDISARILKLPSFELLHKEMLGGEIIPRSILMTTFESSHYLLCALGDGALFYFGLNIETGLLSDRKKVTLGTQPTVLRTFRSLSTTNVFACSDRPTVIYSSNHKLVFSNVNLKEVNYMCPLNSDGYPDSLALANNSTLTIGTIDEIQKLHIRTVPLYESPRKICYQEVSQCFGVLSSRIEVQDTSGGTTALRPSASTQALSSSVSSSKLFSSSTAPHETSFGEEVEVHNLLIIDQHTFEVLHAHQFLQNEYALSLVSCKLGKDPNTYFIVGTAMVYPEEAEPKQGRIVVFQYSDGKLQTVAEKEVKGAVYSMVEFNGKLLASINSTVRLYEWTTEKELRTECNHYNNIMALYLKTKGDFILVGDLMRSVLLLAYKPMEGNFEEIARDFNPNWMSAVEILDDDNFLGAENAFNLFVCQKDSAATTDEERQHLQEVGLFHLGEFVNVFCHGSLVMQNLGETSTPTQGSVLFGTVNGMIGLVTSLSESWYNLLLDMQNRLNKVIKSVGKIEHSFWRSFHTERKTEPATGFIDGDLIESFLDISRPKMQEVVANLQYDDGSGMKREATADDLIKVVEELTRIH
Experiment: Cellular degradation assay, eGFP-SALL4 ZnF1-2 fusion with mCherry reporter in Flp-In 293 cells
Type: cell-based
Settings: compound concentration 2.00E−07; 5 h incubation; n=1
Procedure: IKZF1Δ, IKZF2Δ, GSPT1 and SALL4 ZnF1-2 were subcloned into mammalian pcDNA5/FRT Vector (Ampicillin and Hygromycin B resistant) modified to contain MCS-eGFP-P2A-mCherry. Stable cell lines expressing eGFP-protein fusion and mCherry reporter were generated using Flp-In™ 293 system. […] The resulting images were analyzed using CellProfiler™. […] The fraction of GFP-positive cells/mCherry-positive cells in each well was then calculated, and the green and red images were rescaled for visualization.
Write the number on its own, no unit after it.

INSERT INTO results (molecule, target_of_assay, test_value) VALUES
  ('O=C1CCC(N2C(=O)C=C(Nc3cnc4ccccc4c3)C2=O)C(=O)N1 (stereo not drawn) [Compound 27]', 'SALL4 ZNF1-2 (Homo sapiens, UniProt Q96SW2+Q9UJQ4)', 0.913),
  ('COC(=O)c1n[nH]c(NC2=CC(=O)N(C3CCC(=O)NC3=O)C2=O)n1 (stereo not drawn) [Compound 20]', 'SALL4 ZNF1-2 (Homo sapiens, UniProt Q96SW2+Q9UJQ4)', 0.892),
  ('CCOC(=O)c1cccc(NC2=CC(=O)N(C3CCC(=O)NC3=O)C2=O)c1 (stereo not drawn) [Compound 30]', 'SALL4 ZNF1-2 (Homo sapiens, UniProt Q96SW2+Q9UJQ4)', 0.896),
  ('CCOC(=O)CN(C)C1=CC(=O)N(C2CCC(=O)NC2=O)C1=O (stereo not drawn) [Compound 17]', 'SALL4 ZNF1-2 (Homo sapiens, UniProt Q96SW2+Q9UJQ4)', 0.895),
  ('O=C1CCC(N2C(=O)C=C(Nc3ccc4cc[nH]c4c3)C2=O)C(=O)N1 (stereo not drawn) [Compound 37]', 'SALL4 ZNF1-2 (Homo sapiens, UniProt Q96SW2+Q9UJQ4)', 0.891);

// sample O=C1CCC(N2C(=O)C=C(Nc3ccc(Cc4ccccc4)cc3)C2=O)C(=O)N1 (stereo not drawn) [Compound 39] , its SALL4 ZNF1-2 GFP/RFP Relative Abundance was 1.043

// sample COC(=O)CCNC1=CC(=O)N(C2CCC(=O)NC2=O)C1=O (stereo not drawn) [Compound 14] , its SALL4 ZNF1-2 GFP/RFP Relative Abundance was 0.983

// sample Cc1ccc(NC(=O)Nc2cccc(NC3=CC(=O)N(C4CCC(=O)NC4=O)C3=O)c2)cc1Cl (stereo not drawn) [Compound 43] , its SALL4 ZNF1-2 GFP/RFP Relative Abundance was 0.888

// sample Cc1ccc(NC(=O)NCCNC2=CC(=O)N(C3CCC(=O)NC3=O)C2=O)cc1Cl (stereo not drawn) [Compound 41] , its SALL4 ZNF1-2 GFP/RFP Relative Abundance was 1.004
